# Assay Overview: Cmax in Sprague-Dawley rat at 20 mg/kg, po
# Assay type: ADME, organism-based
# Parameters: dose 20 mg/kg, route po
# Test Context: in vivo
Measured Attribute: Cmax (ng/mL)
# value in ng/mL; strip the unit string

Entry under test: `COc1cc(C(=O)NC2CCNCC2)ccc1Nc1nc(Oc2cccc3c2C(=O)CC3)c2cc[nH]c2n1` . Its Cmax was 21.7

###

Task for the reader: assign each of the following molecules its reported pIC50.
Please express pIC50 as -log10 of the molar concentration.

With UniProtKB Q05397 as the test system, `COc1cc(N2CCC(N3CCN(C)CC3)CC2)ccc1Nc1nc(-c2cnn(C)c2)c2cc[nH]c2n1` showed pIC50 of 6.76

With UniProtKB Q05397 as the test system, `COc1nc(N2CCN(C)CC2)ccc1Nc1nc(Oc2cccc3c2C(=O)CC3)c2cc[nH]c2n1` showed pIC50 of 8.04

With UniProtKB Q05397 as the test system, `COc1cc(C(=O)NC2CC2)ccc1Nc1nc(Oc2cccc3c2C(=O)CC3)c2cc[nH]c2n1` showed pIC50 of 7.96

With UniProtKB Q05397 as the test system, `Cc1cc(Nc2nc(Oc3cccc4c3C(=O)CC4)c3cc[nH]c3n2)n(C(C)C)n1` showed pIC50 of 6.69

With UniProtKB Q05397 as the test system, `CN1CCN(c2ccc(Nc3nc(Oc4cccc5c4C(=O)CC5)c4cc[nH]c4n3)c(C(F)(F)F)c2)CC1` showed pIC50 of 7.00

With UniProtKB Q05397 as the test system, `Cc1cc(N2CCN(C)CC2)ccc1Nc1nc(Oc2cccc3c2C(=O)CC3)c2cc[nH]c2n1` showed pIC50 of 8.15

With UniProtKB Q05397 as the test system, `COc1cc(N2C[C@@H](C)O[C@@H](C)C2)ccc1Nc1nc(Oc2cccc3c2C(=O)CC3)c2cc[nH]c2n1` showed pIC50 of 7.92

With UniProtKB Q05397 as the test system, `COc1cc(N2CCC(N3CCN(C)CC3)CC2)ccc1Nc1nc(Oc2cccc3c2C(=O)CC3)c2ccsc2n1` showed pIC50 of 6.02

With UniProtKB Q05397 as the test system, `COc1cc(C(=O)NC2CCNCC2)ccc1Nc1nc(Oc2cccc3c2C(=O)CC3)c2cc[nH]c2n1` showed pIC50 of 8.72

With UniProtKB Q05397 as the test system, `CN1CCN(c2ccc(Nc3nc(Oc4cccc5c4C(=O)CC5)c4cc[nH]c4n3)cc2F)CC1` showed pIC50 of 8.25

With UniProtKB Q05397 as the test system, `COc1cc(N2CCN(C)CC2)ccc1Nc1nc(Oc2ccc(C)c3c2C(=O)CC3)c2cc[nH]c2n1` showed pIC50 of 8.69

With UniProtKB Q05397 as the test system, `Cc1cc(Nc2nc(Oc3cccc4c3C(=O)CC4)c3cc[nH]c3n2)ccc1OCCN(C)C` showed pIC50 of 8.41

With UniProtKB Q05397 as the test system, `O=C1CCc2cccc(Oc3nc(Nc4ccc(N5CCOCC5)cc4)nc4ccsc34)c21` showed pIC50 of 6.61

With UniProtKB Q05397 as the test system, `COc1cc(N2CCOCC2)ccc1Nc1nc(Oc2cccc3c2C(=O)CC3)c2ccccc2n1` showed pIC50 of 6.18

Measured values drawn from ChEMBL document CHEMBL5154654 for this set.
